Experiment: clinical
Conditions: human, in vivo, Tmax (mean)

Sample Smiles	Tmax, h
CO[C@H]1/C=C/O[C@@]2(C)Oc3c(C)c(O)c4c(=O)c(c5oc6cc(N7CCN(CC(C)C)CC7)cc(O)c6nc-5c4c3C2=O)NC(=O)/C(C)=C\C=C\[C@H](C)[C@H](O)[C@@H](C)[C@@H](O)[C@@H](C)[C@H](OC(C)=O)[C@@H]1C	5.7

====

Assay: clinical
Settings: human, in vivo, 50 mg, apparent terminal half-life, range

Sample Smiles	half-life
CO[C@H]1/C=C/O[C@@]2(C)Oc3c(C)c(O)c4c(=O)c(c5oc6cc(N7CCN(CC(C)C)CC7)cc(O)c6nc-5c4c3C2=O)NC(=O)/C(C)=C\C=C\[C@H](C)[C@H](O)[C@@H](C)[C@@H](O)[C@@H](C)[C@H](OC(C)=O)[C@@H]1C	65.9 to 148 h

Reference source for all entries: patent US7772228B2
